tested_system: Mitogen-activated protein kinase 7 (Homo sapiens)
assay_details: Inhibition of recombinant N-terminal His-tagged human ERK5 (2 to 409 residues) co-expressed with GST-tagged human truncated MEK5DD lacking N-terminal 11 residues (13 to 448 residues) in Sf9 insect cells assessed as substrate peptide phosphorylation using (LVEPLTPSGEAPNQ(K-5FAM)-COOH as substrate incubated for 2 hrs by IMAP fluorescence polarisation assay
readout_kind: IC50 (µM)
The figure you give is taken to be in µM; do not add the unit.

Task: Answer with reported IC50 of O=C(Nc1ccncc1)c1cc(C(=O)c2c(F)cccc2Br)c[nH]1
Output: 0.7

Task: Answer with reported IC50 of O=C(c1ccccc1)c1c[nH]c(C(=O)NCc2ccncc2)c1
Output: 40

====

tested_system: Mitogen-activated protein kinase 14 (Homo sapiens)
Sequence (Q16539 whole entry): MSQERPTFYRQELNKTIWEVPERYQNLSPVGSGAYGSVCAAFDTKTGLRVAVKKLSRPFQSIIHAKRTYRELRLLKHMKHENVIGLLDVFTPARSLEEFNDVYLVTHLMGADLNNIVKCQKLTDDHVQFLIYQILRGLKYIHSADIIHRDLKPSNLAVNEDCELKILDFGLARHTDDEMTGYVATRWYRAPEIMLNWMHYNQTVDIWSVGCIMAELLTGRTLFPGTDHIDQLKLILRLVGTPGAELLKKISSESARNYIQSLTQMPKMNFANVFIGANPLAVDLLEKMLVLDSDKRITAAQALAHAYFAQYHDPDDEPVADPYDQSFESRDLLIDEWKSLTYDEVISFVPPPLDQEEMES
assay_details: Inhibition of recombinant N-terminal GST-tagged full length human p38alpha expressed in Escherichia coli cells assessed as substrate phosphorylation using Ulight-MBP peptide as substrate incubated for 1 hr by LANCE assay
readout_kind: IC50

Known results for molecules:
{"columns": ["sample_smiles", "tested_system", "IC50"],
 "data": [
  ["O=C(Nc1cccnc1)c1cc(C(=O)c2c(F)cccc2Br)c[nH]1", "Mitogen-activated protein kinase 14 (Homo sapiens)", "> 120 µM"],
  ["O=C(Nc1ccncc1)c1cc(C(=O)c2c(F)cccc2Cl)c[nH]1", "Mitogen-activated protein kinase 14 (Homo sapiens)", "> 120 µM"]
]}

Let us examine a further case.
Task: Answer with reported IC50 of O=C(Nc1ccncc1)c1cc(C(=O)c2c(F)cccc2Br)c[nH]1
Output: > 120 µM

====

tested_system: Mitogen-activated protein kinase 7 (Homo sapiens, UniProt Q13164)
Sequence (Q13164 whole entry, the tested form may be a part): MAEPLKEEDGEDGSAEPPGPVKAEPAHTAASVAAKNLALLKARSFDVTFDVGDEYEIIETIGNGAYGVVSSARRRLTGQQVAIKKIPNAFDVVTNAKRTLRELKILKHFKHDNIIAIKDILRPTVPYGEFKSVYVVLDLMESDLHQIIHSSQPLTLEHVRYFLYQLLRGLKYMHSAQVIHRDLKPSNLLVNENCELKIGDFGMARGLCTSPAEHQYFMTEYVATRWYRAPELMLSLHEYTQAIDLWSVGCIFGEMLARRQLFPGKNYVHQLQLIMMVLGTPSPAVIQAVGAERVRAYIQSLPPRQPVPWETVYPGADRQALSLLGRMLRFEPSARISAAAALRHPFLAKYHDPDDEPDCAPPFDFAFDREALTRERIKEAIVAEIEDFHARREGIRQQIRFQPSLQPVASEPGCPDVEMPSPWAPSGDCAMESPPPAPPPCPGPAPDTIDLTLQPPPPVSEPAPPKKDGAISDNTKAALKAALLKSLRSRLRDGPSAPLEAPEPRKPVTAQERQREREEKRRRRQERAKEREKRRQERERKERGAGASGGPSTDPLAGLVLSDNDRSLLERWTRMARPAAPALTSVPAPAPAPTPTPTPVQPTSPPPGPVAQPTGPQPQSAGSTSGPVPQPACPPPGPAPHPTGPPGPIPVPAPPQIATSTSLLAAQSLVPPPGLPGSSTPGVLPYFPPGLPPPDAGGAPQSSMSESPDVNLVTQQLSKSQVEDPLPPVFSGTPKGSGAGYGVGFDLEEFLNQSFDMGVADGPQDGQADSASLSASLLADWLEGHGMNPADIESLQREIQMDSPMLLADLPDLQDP
assay_details: Inhibition of recombinant N-terminal His-tagged human ERK5 (2 to 409 residues) co-expressed with GST-tagged human truncated MEK5DD lacking N-terminal 11 residues (13 to 448 residues) in Sf9 insect cells assessed as substrate peptide phosphorylation using (LVEPLTPSGEAPNQ(K-5FAM)-COOH as substrate incubated for 2 hrs by IMAP fluorescence polarisation assay
In this section we review reported pIC50 values for a set of compounds.
Just so you know, pIC50 here is -log10 of the concentration in molar units; reply with that number alone.

Task: Answer with reported pIC50 of O=C(NCc1ccncc1)c1cc(C(=O)c2ccccc2F)c[nH]1
Output: 5.23

Task: Answer with reported pIC50 of O=C(NCc1ccncc1)c1cc(C(=O)c2ccccc2Cl)c[nH]1
Output: 4.82

Task: Answer with reported pIC50 of O=C(NCc1ccncc1)c1cc(C(=O)c2cccc(F)c2F)c[nH]1
Output: 5.15
